# EXPERIMENT DESCRIPTION: Plasma pharmacokinetics of phenolic metabolites after intake of the GCPE nutraceutical (LC-MS-QToF)
# SETUP CONDITIONS: human, oral, 300 mg hydroxycinnamic acids, Tmax (h) or Range, week 8, first peak where biphasic
Assign label 1 whenever Tmax does not fall below 7 h; assign label 0 whenever it does.

Task: Reported Tmax reaches at least 7 h for COc1ccc(/C=C/C(=O)O)cc1O [iFA, 3′-Hydroxy-4′-methoxycinnamic acid] ?
Result: label 0

Task: Item O=C(O)c1ccc(O)cc1 [4-Hydroxybenzoic acid] with Tmax of 7 h or above?
Result: label 0

Task: Evaluate COc1ccc(CCC(=O)O)cc1OC [Dihydrodimethoxycinnamic acid, 3-(3′,4′-Dimethoxyphenyl)propanoic acid] : Tmax at minimum 7 h?
Result: label 1

Task: Identify whether the reported Tmax of the following compound is 7 h or greater: O=C(O)c1cccc(O)c1 [3-Hydroxybenzoic acid]
Result: label 0

Task: # bool: Tmax of O=C(O)CCc1ccc(O)c(O)c1 [DHCA, 3-(3′,4′-Dihydroxyphenyl)propanoic acid] >= 7 h
Result: label 1

Task: # bool: Tmax of COc1cc(CCC(=O)O)ccc1O [DHFA] >= 7 h
Result: label 1
